Test Name: Induction of IFNalpha secretion in human PBMC incubated for 16 hrs
pEC50: −log10 of the molar value.
Metric Name: pEC50

Nc1nc2c(ncn2[C@@H]2O[C@@H]3COP(=O)(O)O[C@H]4[C@@H](O)[C@H](n5cc(-c6cc7ccccc7s6)c6c(N)ncnc65)O[C@@H]4COP(=O)(O)O[C@@H]2[C@@H]3O)c(=O)[nH]1: 5.39
Nc1nc2c(ncn2[C@@H]2O[C@@H]3COP(=O)(O)O[C@H]4[C@@H](O)[C@H](n5cc(-c6ccc(-c7ccc8ccccc8c7)cc6)c6c(N)ncnc65)O[C@@H]4COP(=O)(O)O[C@@H]2[C@@H]3O)c(=O)[nH]1: 5.29
Nc1nc2c(ncn2[C@@H]2O[C@@H]3COP(=O)(O)O[C@H]4[C@@H](O)[C@H](n5cc(-c6ccc(-c7ccccc7)cc6)c6c(N)ncnc65)O[C@@H]4COP(=O)(O)O[C@@H]2[C@@H]3O)c(=O)[nH]1: 5.13
Nc1nc2c(ncn2[C@@H]2O[C@@H]3COP(=O)(O)O[C@H]4[C@@H](O)[C@H](n5cc(-c6ccc7c8c(cccc68)CC7)c6c(N)ncnc65)O[C@@H]4COP(=O)(O)O[C@@H]2[C@@H]3O)c(=O)[nH]1: 4.13
Nc1nc2c(ncn2[C@@H]2O[C@@H]3COP(=O)(O)O[C@H]4[C@@H](O)[C@H](n5cnc6c(N)ncnc65)O[C@@H]4COP(=O)(O)O[C@H]3[C@H]2O)c(=O)[nH]1: 5.12
Nc1nc2c(ncn2[C@@H]2O[C@@H]3COP(=O)(O)O[C@H]4[C@@H](O)[C@H](n5cc(-c6ccccc6)c6c(N)ncnc65)O[C@@H]4COP(=O)(O)O[C@H]3[C@H]2O)c(=O)[nH]1: 5.16

A: Nc1nc2c(ncn2[C@@H]2O[C@@H]3COP(=O)(O)O[C@H]4[C@@H](O)[C@H](n5cc(-c6cc7ccccc7o6)c6c(N)ncnc65)O[C@@H]4COP(=O)(O)O[C@@H]2[C@@H]3O)c(=O)[nH]1
B: Nc1nc2c(ncn2[C@@H]2O[C@@H]3COP(=O)(O)O[C@@H]4[C@H](O)[C@@H](COP(=O)(O)O[C@@H]2[C@@H]3O)O[C@H]4n2cnc3c(N)ncnc32)c(=O)[nH]1
Between A and B , whose recorded pEC50 is greater? Your choice should be expressed through its label.
B
